Some molecules, each annotated with its measured Total Cell Count.
Test system: Fibroblast
Experimental details: Multiplex assay against human fibroblast
Type: toxicity, cell-based
Experimental setup: 48 h, 10 µM, compound concentration 10 uM, replicate 1
Measured quantity: Total Cell Count

Molecule	Result
C=CC(=O)Nc1cccc(C(=O)Nc2ccc(Nc3cc(-c4[nH]c(SC)nc4C)ccn3)cc2)c1	123
COc1ncc(-c2ccc3nccc(-c4ccnnc4)c3c2)cc1NS(=O)(=O)c1ccc(F)cc1F	85
C[C@@H](NCCCc1cccc(C(F)(F)F)c1)c1cccc2ccccc12.Cl [CINACALCET HYDROCHLORIDE]	226
CN(C)C(=O)N[C@H]1CC[C@H](CCN2CCN(c3cccc(Cl)c3Cl)CC2)CC1.Cl [CARIPRAZINE HYDROCHLORIDE]	235
